B1: Hairpin Ribozyme (parent)
chain: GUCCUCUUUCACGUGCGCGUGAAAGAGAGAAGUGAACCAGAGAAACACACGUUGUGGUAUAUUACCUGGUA

Variants of: B1
Assay: self-cleavage, relative activity (ratio to wild type); higher = more cleavage; co-transcriptional
MEASURED_ENDPOINT: self-cleavage

INSERT INTO results (mutation_notation, readout_number) VALUES
  ('A11G U55G', 0.223),
  ('C37A A61G', 0.207),
  ('C12G G27C', 0.226),
  ('C12G A41U', 1.25),
  ('C3U C4A', 0.0854),
  ('G17A C18G', 1.15),
  ('G15U G21U', 0.868),
  ('A47U A49C', 0.144),
  ('U52C U62A', 0.32),
  ('G34U A36C', 1.02),
  ('G42A C48U', 0.0486),
  ('G29A A44G', 0.113),
  ('U55A U58A', 0.273),
  ('A44G U70C', 0.262),
  ('A31C C37A', 0.0507),
  ('C16U C37G', 0.182),
  ('A41U A71C', 1.58),
  ('G21U A64C', 0.149),
  ('U52G U63A', 0.139),
  ('A22C A64C', 0.101),
  ('A31G U63G', 0.135),
  ('U14G U62G', 0.106),
  ('G15U C66U', 0.574),
  ('C4A C18U', 0.342),
  ('U5C U60A', 0.392),
  ('C10A U58G', 0.592),
  ('A28C U33A', 0.145),
  ('C10A C37A', 0.271),
  ('G19C A36G', 0.766),
  ('C10A A71C', 1.16),
  ('A36C U60A', 0.439),
  ('G27C U33A', 0.0754),
  ('U8C G69A', 0.327),
  ('G56U C65G', 0.104),
  ('C37U U60C', 0.645),
  ('C48G C65U', 0.166),
  ('U8G U62A', 0.0946),
  ('C6U U70G', 0.588),
  ('U8A U9C', 0.377),
  ('A23U U63C', 0.182),
  ('A31U C38U', 0.157),
  ('C4U G13C', 0.282),
  ('G19U C50A', 0.329),
  ('A44G A61C', 0.0999),
  ('U7G G68C', 0.224),
  ('G15U A45G', 0.184);

Value source: the RNAGym collection of RNA variant scans (doi:10.7554/elife.80360)
